- assayed target: Alpha-2C adrenergic receptor (Homo sapiens) (UniProt P18825)
- Sequence (P18825 whole entry, looked up): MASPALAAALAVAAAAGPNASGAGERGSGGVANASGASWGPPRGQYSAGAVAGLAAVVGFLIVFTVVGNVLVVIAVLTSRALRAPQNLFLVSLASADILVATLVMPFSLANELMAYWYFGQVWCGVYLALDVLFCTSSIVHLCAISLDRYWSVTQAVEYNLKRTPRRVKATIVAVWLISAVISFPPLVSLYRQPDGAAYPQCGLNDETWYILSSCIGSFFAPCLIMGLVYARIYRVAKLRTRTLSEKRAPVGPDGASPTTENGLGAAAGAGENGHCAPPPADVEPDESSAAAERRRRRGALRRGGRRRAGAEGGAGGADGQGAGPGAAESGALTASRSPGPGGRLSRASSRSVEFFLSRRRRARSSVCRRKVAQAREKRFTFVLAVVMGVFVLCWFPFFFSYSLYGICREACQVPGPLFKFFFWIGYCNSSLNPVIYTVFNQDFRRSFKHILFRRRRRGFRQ
- protocol summary: modulators of alpha2C/GIRK thallium flux, primary screen, cell-based, HEK293 alpha2C/GIRK1/2 (AID 624);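 also: slope of fluorescence ratio to pre-addition baseline per second over 15 to 24 s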
- experimental conditions: thallium flux BTC fluorescence, at 10 µM, actives lie on both sides
// assign satisfied if slope falls strictly below 0.006, else not satisfied (ties count as not satisfied)

Below are worked cases with known answers.
| molecule | group label |
| --- | --- |
| CCCCCc1c(C)nc(Nc2nc(C)c3cc(OC)ccc3n2)[nH]c1=O | not satisfied |
| Cc1cccc(NC(=O)CSc2nnc(-c3ccccc3C)o2)c1 | satisfied |
| COc1cc(OC)c(C2N(C)c3ccccc3N2C)cc1OC | not satisfied |

Challenge: Hi there! Is slope for "CCOC(=O)c1[nH]c(C)c(C(=O)N2CCN(C(=O)c3ccco3)CC2)c1C" below 0.006, do you know?
Response given: satisfied

Challenge: Hi there! Is slope for COc1ccc(N2C(=O)CC(N3CCCC4CCCCC43)C2=O)cc1 (stereo not drawn) below 0.006, do you know?
Response given: satisfied

Challenge: Hi there! Is slope for CCOC(=O)C1=C(C)N=C2SCCC(=O)N2C1c1cc(Br)ccc1OC (stereo not drawn) below 0.006, do you know?
Response given: not satisfied

Challenge: Hi there! Is slope for "O=S(=O)(c1cccs1)N1CCN(C/C=C/c2ccccc2)CC1" below 0.006, do you know?
Response given: satisfied
